Biological target: rKV1.6 (Rattus norvegicus)
Construct: expressed in transfected cells; host or cells: Xenopus laevis oocytes injected with cRNA
Sequence (P17659 whole entry): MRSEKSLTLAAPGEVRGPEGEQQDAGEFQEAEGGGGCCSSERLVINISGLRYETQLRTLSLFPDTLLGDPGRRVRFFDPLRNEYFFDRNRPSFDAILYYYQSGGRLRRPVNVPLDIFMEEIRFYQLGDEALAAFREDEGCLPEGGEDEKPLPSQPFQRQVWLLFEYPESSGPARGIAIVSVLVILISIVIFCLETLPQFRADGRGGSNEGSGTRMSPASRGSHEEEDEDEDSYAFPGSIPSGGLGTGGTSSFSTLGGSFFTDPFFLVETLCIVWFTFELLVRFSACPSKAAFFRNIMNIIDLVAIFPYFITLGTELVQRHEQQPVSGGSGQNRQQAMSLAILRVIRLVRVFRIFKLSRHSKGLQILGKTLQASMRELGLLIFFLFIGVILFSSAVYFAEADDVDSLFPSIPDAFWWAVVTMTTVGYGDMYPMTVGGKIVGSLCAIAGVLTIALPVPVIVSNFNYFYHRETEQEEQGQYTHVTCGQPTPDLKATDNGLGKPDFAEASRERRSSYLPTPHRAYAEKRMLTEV
Experiment: Two-electrode voltage-clamp on Xenopus laevis oocytes expressing rKV1.6
Assay type: cell-based
Details: concentration-response curve, percentage blocked current fitted with Hill equation; TEVC oocytes, 0 mV from −90 mV; mean ± SE, n ≥ 3; SEM; read-out: KV1.6 IC50
Positions of bridges follow the written chain, without caps; N, C: chain ends. Residues, ends and D or L forms follow the SMILES beside them.
reported metric: IC50 (nM)
Give a bare numeral; the unit nM is implied.

Give the reported IC50 for C[C@@H]1NC(=O)[C@@H]2CSSC[C@H](NC(=O)[C@H]([C@@H](C)O)NC(=O)[C@H](CCCCN)NC(=O)[C@@H](NC(=O)[C@@H](N)CCCNC(=N)N)CSSC[C@@H](C(=O)NCC(=O)O)NC(=O)[C@H](CC(N)=O)NC(=O)[C@@H]3CCCN3C(=O)[C@H](CCCCN)NC(=O)[C@@H]3CCCN3C1=O)C(=O)N[C@@H](CO)C(=O)N[C@@H](CCCCN)C(=O)NCC(=O)N[C@@H](CCCNC(=N)N)C(=O)N2 [Arg11Ala] (H-RCKTCSKGRCAPKPNCG-OH; disulfide 2-16, 5-10) (system: rKV1.6 (Rattus norvegicus)).
811

Origin of the recorded values: paper PMC6213216
